Listed here: items and their measured composite Z-score.
Test: small-molecule microarray binders of probe aXIP, primary screen, biochemical, NeuroSMM set, 635/667 nm fluorescence (AID 1119);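 further: probe is the protein aXip251-270 applied at 1 µg/mL to compound-printed slides; binding of probe to printed compounds measured as 667 nm fluorescence plus signal to noise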
Conditions: higher = more signal, called active from +8 up or from −8 down
readout type: composite Z-score

CC(CCC(=O)OC[C@H]1O[C@H](C#Cc2ccccc2)C=C[C@@H]1Oc1ccc(C)cc1)=NO[C@@H](C)c1cc(-c2c(C)cc(C)cc2C)no1
-0.61
CCN1C(=O)[C@H]2[C@H]3[C@H](O)[C@H](O)CC(=NNC(=O)OCc4ccccc4)[C@@H]3CC[C@H]2C1=O
-0.45
C[C@]12CCC3c4ccc(OCC5CO5)cc4CCC3C1CC[C@@H]2O (stereo not given in full)
0.257
C=CCOCC1CN2[C@@H](CC[C@@H](C)[C@@H]2c2ccc(Br)cc2)C(=O)O1 (stereo not given in full)
0.419
COC(=O)[C@H](C)NC(=O)CCC1CC(OC(=O)NCc2cccc3ccccc23)CC2(CCCC(COC(=O)NCc3ccccc3)O2)O1 (stereo not given in full)
0.142
COc1ccc(O[C@H]2C=C[C@@H](c3ccccc3)O[C@@H]2COC(=O)CCC(C)=NOC[C@@H](O)COCc2ccco2)cc1
-0.22
CCN1C(=O)[C@H]2[C@H]3[C@H](O)[C@H](O)CC(=NO[C@@H](C)c4cc(-c5c(C)cc(C)cc5C)no4)[C@@H]3CC[C@H]2C1=O
-0.0662
CC(C)=CCCC(C)=CCON=C1C[C@@H](O)[C@@H](O)[C@@H]2[C@@H]3C(=O)N(C4CCCCC4)C(=O)[C@@H]3CC[C@H]12
1.59
CCOC(=O)NN=C1C[C@@H](O)[C@@H](O)[C@@H]2[C@@H]3C(=O)N(c4ccc(F)cc4F)C(=O)[C@@H]3CC[C@H]12
-0.623
C=CC[C@@H]1C=C[C@H](ON=C[C@@H](NS(=O)(=O)c2ccc(C)cc2)[C@H](C)C=CCC(=O)OC)[C@@H](CO)O1
0.819
COC(=O)[C@H](C)NC(=O)CCC1CC(OC(=O)NCCc2ccc(F)cc2)CC2(CCCC(COC(=O)NCc3ccccc3)O2)O1 (stereo not given in full)
0.0852
COC(=O)[C@H](C)NC(=O)CCC1CC(OC(=O)NCCc2ccc(F)cc2)CC2(CCCC(COC(=O)NCCc3ccccc3OC)O2)O1 (stereo not given in full)
0.353
CC(CCC(=O)OC[C@H]1O[C@H](C#Cc2ccccc2)C=C[C@@H]1Oc1ccc(C)cc1)=NOC[C@@H](C)[C@H](OCc1ccccc1)C(C)C
0.35
COC(=O)[C@H](CCSC)NC(=O)CC=C[C@@H](C)CO
-0.131
COc1cccc([C@H]2Oc3ccc(OC)cc3C(=NO[C@@H](C)c3cc(-c4c(C)cc(C)cc4C)no3)[C@@H]2O)c1
-0.238
